Assign NORMALIZED SGLT1 ACTIVITY (%) to each entry below.
biological target: human SGLT1 (hSGLT1) (human, UniProt P13866); assay: primary screen, percent of control activity; higher = less effect of the substance; design: single well; conditions: 50 µM
Sequence (P13866 whole entry, looked up): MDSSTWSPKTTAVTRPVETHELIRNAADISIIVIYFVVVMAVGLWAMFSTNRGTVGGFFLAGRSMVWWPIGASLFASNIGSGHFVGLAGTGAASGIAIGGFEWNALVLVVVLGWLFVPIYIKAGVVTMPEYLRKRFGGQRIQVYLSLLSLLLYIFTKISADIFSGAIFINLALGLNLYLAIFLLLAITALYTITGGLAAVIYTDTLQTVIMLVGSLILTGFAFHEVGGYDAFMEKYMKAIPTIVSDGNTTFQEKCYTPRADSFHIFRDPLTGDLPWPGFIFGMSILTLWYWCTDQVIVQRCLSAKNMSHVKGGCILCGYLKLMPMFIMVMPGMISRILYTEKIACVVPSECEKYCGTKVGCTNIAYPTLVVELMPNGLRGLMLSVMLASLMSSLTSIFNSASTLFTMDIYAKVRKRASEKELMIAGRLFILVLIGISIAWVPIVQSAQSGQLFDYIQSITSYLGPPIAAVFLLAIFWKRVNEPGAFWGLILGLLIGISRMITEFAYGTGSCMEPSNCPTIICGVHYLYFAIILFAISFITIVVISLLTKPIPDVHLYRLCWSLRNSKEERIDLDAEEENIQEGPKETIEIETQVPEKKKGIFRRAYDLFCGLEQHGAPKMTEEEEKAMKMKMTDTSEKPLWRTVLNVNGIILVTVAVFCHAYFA
Out of some 1,900 compounds screened, about 40 (2%) showed an effect of 50% or more. Shown is part of a subset that was picked to be rich in strong results.
One number for each entry, in %.

In [3]: df
Out[3]:
                                   molecule                              assay_system              quantity_measured  quantitative_readout
0  COC(=O)c1c(OC)cc2c(c1C)Oc1c(Cl)c(O)c(Cl)c(C)c1C(=O)O2  human SGLT1 (hSGLT1) (human, UniProt P13866)  NORMALIZED SGLT1 ACTIVITY (%)                   520
1  CC(=O)O[C@H]1CC[C@@]2(C)C(C[C@@H](OC(C)=O)[C@@]3(C)C4=CC(=O)O[C@@H](c5ccoc5)[C@]4(C)CCC23)C1(C)C (some centres unmarked)  human SGLT1 (hSGLT1) (human, UniProt P13866)  NORMALIZED SGLT1 ACTIVITY (%)                   358
2    Cc1cc(O)c2c(c1)C(=O)c1cc(O)cc(O)c1C2=O  human SGLT1 (hSGLT1) (human, UniProt P13866)  NORMALIZED SGLT1 ACTIVITY (%)                   118

Each molecule below has a reported value. Please supply its NORMALIZED SGLT1 ACTIVITY (%).
1. O=C(CCCN1CCN(c2ccccn2)CC1)c1ccc(F)cc1
2. COc1cc(/C=C/C(=O)O)ccc1O

1. 111
2. 147

---

target: human SGLT1 (hSGLT1) (human, UniProt P13866); assay: primary screen, percent of control activity; higher = less effect of the substance; set-up: single well; conditions: 50 µM
The campaign covered roughly 1,900 compounds. About 40 (2%) showed an effect of 50% or more. The list comes from a sample in which strong results are over-represented; it also holds close analogues and randomly drawn compounds.
Could you please report measured NORMALIZED SGLT1 ACTIVITY (%) for the items listed next?
Answers are plain numbers, in %.

>>> df
                                   compound  output_unit  quantitative_readout
0  CCCCCc1c2c(cc(O)c1C(=O)O)OC(=O)c1c(cc(OC)cc1C(=O)CCCC)O2            %                   152

Would you be so kind as to report NORMALIZED SGLT1 ACTIVITY (%) for each listed record?
1. Oc1c(Br)cc(Br)c2cccnc12
2. COc1ccc(C[C@H](N)C(=O)N[C@@H]2[C@@H](CO)OC(n3cnc4c(N(C)C)ncnc43)[C@@H]2O)cc1.Cl.Cl (stereo partly shown)
3. Oc1ccc(Cl)c2cccnc12
4. OCCN1CCN(CCCN2c3ccccc3Sc3ccc(Cl)cc32)CC1
5. C[C@H]1CC2C3CCC4=CC(=O)C=C[C@]4(C)[C@@]3(F)[C@@H](O)C[C@]2(C)[C@@]1(O)C(=O)CO (stereo partly shown)
6. CC(CCC(=O)O)[C@H]1CCC2C3C(C[C@H](O)[C@@]21C)[C@@]1(C)CC[C@@H](O)C[C@H]1C[C@H]3O (stereo partly shown)
7. CC(C)=CCC[C@](C)(O)C1CC=C(C)CC1 (stereo partly shown)
8. C[N+](C)(C)CCO.[Cl-]

[50, 116, 208, 17, 241, 89, 99, 97]

For the 2 compounds below, give their NORMALIZED SGLT1 ACTIVITY (%) values.
1. CC(=O)O[C@@H]1CC2C(C)(C)CCC(=O)[C@]2(C)C2CC[C@@]3(C)[C@H](c4ccoc4)OC(=O)C4OC43[C@@]21C (stereo partly shown)
2. Oc1c(I)cc(I)c2cccnc12

1. 126
2. 97

Batch lookup, NORMALIZED SGLT1 ACTIVITY (%) per entry.
1. CC(C)CCCC(C)[C@H]1CCC2C3CC=C4C[C@@H](O)CC[C@]4(C)C3CC[C@@]21C (stereo partly shown)
2. COc1ccc2cc([C@H](C)CO)ccc2c1
3. O=S(=O)(O)O.Oc1cccc2cccnc12

[120, 111, 127]

Please state NORMALIZED SGLT1 ACTIVITY (%) for every compound in the list that follows.
1. CC(C)=CCOc1c2occc2cc2ccc(=O)oc12
2. COc1cc(OC)c(OC)cc1C=O

[161, 189]

---

target: human SGLT1 (hSGLT1) (human, UniProt P13866); experiment: primary screen, percent of control activity; higher = less effect of the substance; parameters: single well; conditions: 50 µM
The campaign covered roughly 1,900 compounds. About 40 (2%) showed an effect of 50% or more. The sample as a whole holds a higher share of strong results than the screen did.
Would you kindly list NORMALIZED SGLT1 ACTIVITY (%) for each of these compounds?
Dear colleague, please send the value followed by its unit.

Study these solved cases before continuing.
compound	NORMALIZED SGLT1 ACTIVITY (%)
CCCCN1CCCCC1C(=O)Nc1c(C)cccc1C.Cl (stereo not drawn)	42%
CC(C)CCCC(C)[C@H]1CCC2C3C(=O)C=C4C[C@@H](O)CC[C@]4(C)C3CC[C@@]21C (stereo partly drawn)	95%
CCOP(=S)(OCC)Oc1nc(Cl)c(Cl)cc1Cl	35%
O=C(O[C@@H]1Cc2c(O)cc(O)cc2O[C@@H]1c1cc(O)c(O)c(O)c1-c1c([C@H]2Oc3cc(O)cc(O)c3C[C@H]2OC(=O)c2cc(O)c(O)c(O)c2)cc(O)c(O)c1O)c1cc(O)c(O)c(O)c1	99%
CC(C)CC(N(C)C)C1(c2ccc(Cl)cc2)CCC1.Cl (stereo not drawn)	28%
COc1cc2ccc(=O)oc2c(OC)c1OC	257%

I need NORMALIZED SGLT1 ACTIVITY (%) for every entry listed below, if you could help.
1. CC1=C(/C=C/C(C)=C/C=C/C(C)=C/C=C/C=C(C)/C=C/C=C(C)/C=C/C(=O)[C@]2(C)C[C@@H](O)CC2(C)C)C(C)(C)C[C@H](O)C1
2. COc1ccc2ccc(=O)oc2c1
3. CCC1(c2ccc(N)cc2)CCC(=O)NC1=O (stereo not drawn)

1. 103%
2. 130%
3. 108%

---

Can you tell me NORMALIZED SGLT1 ACTIVITY (%) for the items I'm about to list?
Target: human SGLT1 (hSGLT1) (human, UniProt P13866)
Assay: primary screen, percent of control activity; higher = less effect of the substance
Design: single well
Conditions: 50 µM
Method: Two days before the assay, CHO‐wild type and CHO‐hSGLT1 cells were seeded in maintenance medium at 25 000 cells/well in clear‐bottom black 96‐well cell culture plates. […] Fluorescence was measured on a Tecan Infinite M200 Microplate Reader (Tecan, Männedorf, Switzerland) with excitation at 445 nm and emission at 525 nm. […] Background corrected uptake with test compound was expressed as a percentage of corrected uptake without test compound.
Out of some 1,900 compounds screened, about 40 (2%) showed an effect of 50% or more. Shown is part of a subset that was picked to be rich in strong results.
Numbers only, in %.

Some solved entries appear below for comparison.
In [3]: df
Out[3]:
                                   molecule                              assay_system  quantitative_readout
0  Cc1cccc(CN2CCN(C(c3ccccc3)c3ccc(Cl)cc3)CC2)c1.Cl.Cl (centres unmarked)  human SGLT1 (hSGLT1) (human, UniProt P13866)                   133
1  Cl.Clc1ccc(C(OCCN2CCCCC2)c2ccccc2)cc1 (centres unmarked)  human SGLT1 (hSGLT1) (human, UniProt P13866)                    37
2  COc1cc(-c2coc3cc(O[C@@H]4O[C@H](CO)[C@@H](O)[C@H](O)[C@H]4O)c(OC)c(O)c3c2=O)cc(O)c1OC  human SGLT1 (hSGLT1) (human, UniProt P13866)                   111
3              COc1c2ccoc2cc2oc(C)cc(=O)c12  human SGLT1 (hSGLT1) (human, UniProt P13866)                   165

Now examine the next entry.
Please indicate NORMALIZED SGLT1 ACTIVITY (%) recorded for Cl.Cl.O=C(O)COCCN1CCN(C(c2ccccc2)c2ccc(Cl)cc2)CC1 (centres unmarked)
141
